System: OVCAR-3
Assay: NCI tumour cell line growth inhibition, 48 h
The source made the active and inactive calls. No stated cut-off is given here; in the data, active = GI50 up to about 1.1 µM and inactive = higher.
Listed below: GI50 values for each entry.
measuredAttribute: GI50

>>> observed("CC(=O)c1cccc(NC(=O)/C(=N\\NC(C)(C)C)c2c(O)c3ccccc3oc2=O)c1")
"> 100 µM (inactive)"
>>> observed("CC1=NN(C(=O)CC(=O)Nc2ccc(C)cc2)C(=O)C1/N=N\\c1ccc(S(=O)(=O)c2ccc(/N=N/C3C(=O)N(C(=O)CC(=O)Nc4ccc(C)cc4)N=C3C)cc2)cc1 (centres undefined)")
"64.6 µM (inactive)"
>>> observed("CC(C)(CO)CNc1cc(Cl)nc(N)n1")
"> 100 µM (inactive)"
>>> observed("Clc1ccc(-c2ccc(-c3nnc(CCc4nnc(-c5ccc(-c6ccc(Cl)cc6)o5)o4)o3)o2)cc1")
"> 100 µM (inactive)"
>>> observed("O=C(CCCCCCCCC(=O)OCC1OC(n2cnc3c(=O)[nH]cnc32)C(O)C1O)OCC1OC(n2cnc3c(=O)[nH]cnc32)C(O)C1O (centres undefined)")
"> 100 µM (inactive)"
>>> observed("O=C1/C(=C2\\Sc3c(ccc(Cl)c3Cl)C2=O)Sc2c1ccc(Cl)c2Cl")
"12.5 µM (inactive)"
>>> observed("CCc1nc(N)nc(N)c1-c1ccc(NCCc2ccccc2)c([N+](=O)[O-])c1")
"1.44 µM (inactive)"
>>> observed("COc1ccc(/C=C/c2cc(OC)c(OC(C)=O)c(OC)c2)cc1")
"41.2 µM (inactive)"
>>> observed("CN1CCN(CC(=O)N2CCCn3c2nc2ccccc2c3=O)CC1")
"> 100 µM (inactive)"

---

System: NCI-H23
Test: NCI tumour cell line growth inhibition, 48 h
Calls of active or inactive are those of the source. No stated cut-off is given here; in the data, active = GI50 up to about 1.1 µM and inactive = higher.
measuredAttribute: GI50

>>> observed("CN(C)c1ccc(/C=c2/c3ccccc3n3c2cc(NC(=O)NCCC[N+](C)(C)C)[n+]3C)cc1")
"> 100 µM (inactive)"
>>> observed("O=C(N/C(=C\\c1ccc(/C=C(\\NC(=O)c2ccccc2)c2nc3ccccc3[nH]2)cc1)c1nc2ccccc2[nH]1)c1ccccc1")
"> 100 µM (inactive)"
>>> observed("COc1ccc(C(c2ccccc2C(=O)O)c2ccc(OC)c3ccccc23)c2ccccc12")
"> 10 µM (inactive)"
>>> observed("O=c1c2cccnc2ncn1CCCN1CCOCC1")
"> 100 µM (inactive)"
>>> observed("Cc1cccc(C(C)(C)C)c1NC(=O)CCc1n[nH]c(=S)o1")
"> 100 µM (inactive)"
>>> observed("Cc1nc2ccccc2[s+]c1-c1cnc(NC#N)nc1C(=O)Nc1cccc(Cl)c1")
"> 100 µM (inactive)"
>>> observed("O=C(CSc1nnc(Cc2ccccc2)o1)Nc1ccc(Cl)cc1Cl")
"> 100 µM (inactive)"
>>> observed("CCOP(=O)(OCC)/C(C#N)=C/c1[nH]cnc1C")
"> 100 µM (inactive)"
>>> observed("O=C1/C(=C/c2ccc(Cl)cc2)CSC/C1=C\\c1ccc(Cl)cc1")
"2.9 µM (inactive)"
>>> observed("c1ccc2c(Cc3[nH]c4ccccc4c3Cc3c[nH]c4ccccc34)c[nH]c2c1")
"2.1 µM (inactive)"

---

Test system: COLO 205
Experiment: NCI tumour cell line growth inhibition, 48 h
Active and inactive are the calls of the source. Rule as the data show it: active = GI50 up to about 1.1 µM and inactive = higher.
measuredAttribute: GI50

>>> observed("O=C(O)c1c2c(cc3c(=O)c4ccccc4[nH]c13)CCCC2")
"> 100 µM (inactive)"
>>> observed("O=C1/C(=C/c2cccc(Br)c2)CSC/C1=C\\c1cccc(Br)c1")
"2.9 µM (inactive)"
>>> observed("CCCCCC[C@@H]1CCC2C(CO)[C@@H](O)CC[C@@H]2C1 (some centres undefined)")
"18.5 µM (inactive)"
>>> observed("COC1CC(n2cc(F)c(N)nc2=O)OC1CO (centres undefined)")
"> 100 µM (inactive)"
>>> observed("COC1=CCC2=C(CCN(C(=O)C3CC3)C2Cc2ccc(OC)c(O)c2)C1 (centres undefined)")
"51.5 µM (inactive)"
>>> observed("COC(=O)C1=C(O)c2cc(-c3ccccc3)c(-c3ccccc3)c(C#N)c2NC(=O)C1")
"6.08 µM (inactive)"
>>> observed("Clc1ccccc1-c1nn2c(CCCCCCCCc3nnc4sc(-c5ccccc5Cl)nn34)nnc2s1")
"> 100 µM (inactive)"
>>> observed("CC1(C)CC(=O)c2c(nc3c(ccc4ccccc43)c2-c2ccc(NC(=O)CCCC(=O)Nc3ccc(-c4c5c(nc6c4ccc4ccccc46)CC(C)(C)CC5=O)cc3)cc2)C1")
"> 100 µM (inactive)"
>>> observed("Cc1ccccc1C1CC(c2ccccc2)=NO1 (centres undefined)")
"> 100 µM (inactive)"
